Test system: HCT116 cells expressing E. coli NfsA nitroreductase (NfsA_Ec)
assay.details: Low cell density anti-proliferative (IC50) assay, HCT116 NfsA_Ec vs HCT116 WT
Format: cell-based
condition.context: Escherichia coli, HCT-116; aerobic, four hour drug exposure, five days regrowth
recorded.metric: IC50 (nM)

compound=CCCN(CCO)C(=O)c1cc(N(CCBr)CCBr)c(S(C)(=O)=O)cc1[N+](=O)[O-] unit_annotation=nM reported=170
compound="CS(=O)(=O)OCCN(CCBr)c1c(C(=O)NCCO)cc([N+](=O)[O-])cc1[N+](=O)[O-] [PR-104A, reference compound]" unit_annotation=nM reported=30
compound=CCCS(=O)(=O)c1cc([N+](=O)[O-])c(C(=O)N(C)CCO)cc1N(CCBr)CCBr unit_annotation=nM reported=1000

---

MTD by entry:
assay.details: in vivo
Assay type: in vivo, mice
condition.context: NIH-III nude, mouse, in vivo, ip; H1299 tumor-bearing mice, i.p.; read-out: Maximum tolerated dose (MTD)
recorded.metric: MTD (µmol/kg)

chemical_smiles=CCS(=O)(=O)c1cc([N+](=O)[O-])c(C(=O)N(C)CCOP(=O)(O)O)cc1N(CCBr)CCBr recorded_metric=MTD reported=1330
chemical_smiles=CS(=O)(=O)c1cc([N+](=O)[O-])c(C(=O)NCCOP(=O)(O)O)cc1N(CCBr)CCBr recorded_metric=MTD reported=1330
chemical_smiles=CN(CCOP(=O)(O)O)C(=O)c1cc(N(CCBr)CCBr)c(S(C)(=O)=O)cc1[N+](=O)[O-] recorded_metric=MTD reported=750

---

assay.details: in vivo
Assay type: in vivo, mice
condition.context: NIH-III nude, mouse, in vivo, ip; nude mice, non-tumour bearing, i.p.; read-out: Maximum tolerated dose (MTD)
Description: NfsA_Ec potency and bystander effect from the diffusion of activated metabolites is only one determinant of the therapeutic utility of a GDEPT prodrug. Overall, anti-tumor activity will also depend on the efficiency of metabolic activation at well-tolerated prodrug doses, determined mainly by the relationship between host toxicity and plasma/tumor pharmacokinetics. […] An estimated starting dose was determined from related compounds. […] Tumor size and body weights were measured regularly. […]
recorded.metric: MTD (µmol/kg)

chemical_smiles=CN(CCOP(=O)(O)O)C(=O)c1cc(N(CCBr)CCBr)c(S(C)(=O)=O)cc1[N+](=O)[O-] recorded_metric=MTD reported=1000
chemical_smiles=CCS(=O)(=O)c1cc([N+](=O)[O-])c(C(=O)N(C)CCOP(=O)(O)O)cc1N(CCBr)CCBr recorded_metric=MTD reported=1330

---

assay.details: LogD7.4 by low-volume octanol/PBS shake-flask method
Type: physicochemical
condition.context: n-octanol/PBS; octanol-water partition coefficient, shake-flask method at pH 7.4
recorded.metric: logD at 90 min

chemical_smiles=CCN(CCO)C(=O)c1cc(N(CCBr)CCBr)c(S(C)(=O)=O)cc1[N+](=O)[O-] recorded_metric="logD at 90 min" reported=1.6
chemical_smiles=CCCN(CCO)C(=O)c1cc(N(CCBr)CCBr)c(S(C)(=O)=O)cc1[N+](=O)[O-] recorded_metric="logD at 90 min" reported=2.1
chemical_smiles=CCS(=O)(=O)c1cc([N+](=O)[O-])c(C(=O)NCCO)cc1N(CCBr)CCBr recorded_metric="logD at 90 min" reported=1.5
chemical_smiles=CCCS(=O)(=O)c1cc([N+](=O)[O-])c(C(=O)N(C)CCO)cc1N(CCBr)CCBr recorded_metric="logD at 90 min" reported=2.1
chemical_smiles=CCS(=O)(=O)c1cc([N+](=O)[O-])c(C(=O)N(C)CCO)cc1N(CCBr)CCBr recorded_metric="logD at 90 min" reported=1.6
chemical_smiles=CS(=O)(=O)c1cc([N+](=O)[O-])c(C(=O)NCCO)cc1N(CCBr)CCBr recorded_metric="logD at 90 min" reported=1
chemical_smiles=CN(CCO)C(=O)c1cc(N(CCBr)CCBr)c(S(C)(=O)=O)cc1[N+](=O)[O-] recorded_metric="logD at 90 min" reported=1.2

---

Test system: H1299 WT cells
assay.details: Anti-proliferative IC50 assay, H1299 WT cells
Type: cell-based
condition.context: Homo sapiens, NCI-H1299, 4 hour drug exposure, regrowth for five days
pIC50: −log10 of the molar value.
pIC50 by entry:
recorded.metric: pIC50

compound="CS(=O)(=O)OCCN(CCBr)c1c(C(=O)NCCO)cc([N+](=O)[O-])cc1[N+](=O)[O-] [PR-104A, reference compound]" reported=3.88
compound=CCS(=O)(=O)c1cc([N+](=O)[O-])c(C(=O)N(C)CCO)cc1N(CCBr)CCBr reported=3.65
compound=CN(CCO)C(=O)c1cc(N(CCBr)CCBr)c(S(C)(=O)=O)cc1[N+](=O)[O-] reported=3.76
compound=CS(=O)(=O)c1cc([N+](=O)[O-])c(C(=O)NCCO)cc1N(CCBr)CCBr reported=3.78
